# experimentNotes: Tissue distribution of SHR9146 in mice after oral gavage of 40 mg/kg
# Type: in vivo, ICR mice
# conditionsUsed: female, ICR, mouse, whole blood, po, 40 mg/kg, female, 1 h, 40 mg/kg oral gavage, individual mice; read-out: SHR9146 concentration in Whole blood
quantityKind: concentration at 1 h (ng/mL)

>>> df
                                   molecule  numericvalue
0  OCCn1cc(-c2ccc(N3CCC([C@H]4c5c(F)cccc5-c5cncn54)CC3)cc2)cn1 [SHR9146]          7360

---

# experimentNotes: Tissue distribution of SHR9146 in mice after oral gavage of 40 mg/kg
# Type: in vivo, ICR mice
# conditionsUsed: male, ICR, mouse, bladder, po, 40 mg/kg, male, 1 h, 40 mg/kg oral gavage, Mean (n=3); read-out: SHR9146 concentration in Bladder
quantityKind: concentration at 1 h (ng/g)

>>> df
                      structuresmilesstring          quantitykind  numericvalue
0  OCCn1cc(-c2ccc(N3CCC([C@H]4c5c(F)cccc5-c5cncn54)CC3)cc2)cn1  concentration at 1 h         12400
